target.of.assay: UniProt Q13822
procedure.summary: Inhibition of human recombinant C-terminal FLAG-tagged autotaxin expressed in baculovirus-infected Sf9 cells assessed as FS-3 hydrolysis
measurement.name: pIC50
For clarity, pIC50 is expressed as the negative log10 of concentration in mol/L.

Some molecules with recorded pIC50:
[[record]]
structure_string = "Cc1cccc(/N=N/c2c(S(=O)(=O)O)cc3cc(NC(=O)Nc4ccc5c(O)c(/N=N/c6ccc7cc(S(=O)(=O)O)ccc7c6)c(S(=O)(=O)O)cc5c4)ccc3c2O)c1"
value = 4.92

[[record]]
structure_string = "Nc1c(S(=O)(=O)O)cc2cc(S(=O)(=O)O)ccc2c1/N=N/c1ccc(-c2ccc(/N=N/c3c(N)c(S(=O)(=O)O)cc4cc(S(=O)(=O)O)ccc34)c(S(=O)(=O)O)c2)cc1"
value = 4.90

[[record]]
structure_string = "COc1cc(/N=N/c2ccc3cc(S(=O)(=O)O)cc(S(=O)(=O)O)c3c2)ccc1/N=N/c1ccc(NC(=O)c2ccc(NC(=O)c3ccccc3)cc2)cc1C"
value = 5.77

[[record]]
structure_string = "COc1cc(NC(=O)c2ccc(NC(=O)c3ccc(N)cc3)cc2)c(OC)cc1/N=N/c1cc(C)c(/N=N/c2cc(S(=O)(=O)O)c3cccc(S(=O)(=O)O)c3c2)cc1C"
value = 5.12


Query: pIC50 for CC(=O)Nc1cc(/N=N/c2ccc(NC(=O)c3ccc(N)cc3)cc2C)c(S(=O)(=O)O)cc1/N=N/c1ccc(/N=N/c2ccc(S(=O)(=O)O)cc2)cc1 ?
Reply: 5.27

Query: Thanks! And Nc1ccc2cc(S(=O)(=O)O)c(/N=N/c3ccc(-c4ccc(/N=N/c5c(S(=O)(=O)O)cc6cc(S(=O)(=O)O)c(/N=N/c7cccc([N+](=O)[O-])c7)c(N)c6c5O)cc4)cc3)c(O)c2c1 ?
Reply: 4.55

Query: Thanks! And Cc1cc(-c2ccc(/N=N/c3ccc4c(S(=O)(=O)O)cc(S(=O)(=O)O)c(N)c4c3O)c(C)c2)ccc1/N=N/c1ccc2c(S(=O)(=O)O)cc(S(=O)(=O)O)c(N)c2c1O ?
Reply: 6.04

Query: Thanks! And Nc1c(/N=N/c2ccc(-c3ccc(/N=N/c4c(S(=O)(=O)O)cc5cc(S(=O)(=O)O)c(/N=N/c6ccccc6)c(O)c5c4N)cc3)cc2)ccc2c(S(=O)(=O)O)cccc12 ?
Reply: 5.62

Query: Thanks! And COc1ccccc1/N=N/c1c(S(=O)(=O)O)cc2cc(NC(=O)Nc3ccc4c(O)c(/N=N/c5ccc(S(=O)(=O)O)cc5C)c(S(=O)(=O)O)cc4c3)ccc2c1O ?
Reply: 4.74

Query: Thanks! And Cc1c(N)cc(S(=O)(=O)O)c(/N=N/c2ccc(-c3ccc(/N=N/c4c(S(=O)(=O)O)cc5cc(S(=O)(=O)O)c(/N=N/c6cccc([N+](=O)[O-])c6)c(N)c5c4O)cc3)cc2)c1N ?
Reply: 5.23

Query: Thanks! And O=S(=O)([O-])c1cccc2c1c(Nc1ccccc1)cc1c2nc2cc(S(=O)(=O)O)c(Nc3ccccc3)cc2[n+]1-c1ccccc1 ?
Reply: 5.03

----------
target.of.assay: Autotaxin (Homo sapiens)
procedure.summary: Inhibition of human recombinant C-terminal FLAG-tagged autotaxin expressed in baculovirus-infected Sf9 cells assessed as FS-3 hydrolysis at 10 uM relative to control
measurement.name: inhibition (%)
All answers are understood in %, so give the number only.

Some compounds with recorded inhibition:
[[record]]
structure_string = "COc1ccc(/C=N/NC(=O)C(=O)N/N=C/c2ccc(OC)c(S(=O)(=O)O)c2)cc1S(=O)(=O)O"
value = 0

[[record]]
structure_string = "Nc1ccc(C(=O)Nc2ccc(C(=O)Nc3ccc(/C=C/c4ccc(NC(=O)c5ccc(N)cc5)cc4S(=O)(=O)O)c(S(=O)(=O)O)c3)cc2)cc1"
value = 0

[[record]]
structure_string = "Nc1cccc(/N=N/c2c(S(=O)(=O)O)cc3cc(NC(=O)Nc4ccc5c(O)c(/N=N/c6cccc(N)c6)c(S(=O)(=O)O)cc5c4)ccc3c2O)c1"
value = 32

[[record]]
structure_string = "O=C(Nc1cc(O)ccc1Oc1cc(O)c(O)cc1S(=O)(=O)O)Nc1cc(O)ccc1Oc1cc(O)c(O)cc1S(=O)(=O)O"
value = 0

[[record]]
structure_string = "COc1cc(S(=O)(=O)O)ccc1/N=N/C(=N\\Nc1ccc(S(=O)(=O)O)cc1OC)C(N)=O"
value = -1


Query: inhibition for Nc1c(/N=N/c2ccc(-c3ccc(/N=N/c4c(S(=O)(=O)O)cc5cc(S(=O)(=O)O)c(/N=N/c6ccccc6)c(O)c5c4N)cc3)cc2)ccc2c(S(=O)(=O)O)cccc12 ?
Reply: 75

Query: Thanks! And Cc1cc(-c2ccc(/N=N/c3c(N)c(S(=O)(=O)O)cc4cc(S(=O)(=O)O)ccc34)c(C)c2)ccc1/N=N/c1cc(S(=O)(=O)O)c2ccccc2c1N ?
Reply: 68
